- assayed_system: IDO1 (Homo sapiens, UniProt P14902)
- Construct: HeLa cells were treated with a test compound in the presence of IFNγ, which induces IDO1 expression; endogenous in cells
- Sequence (P14902 whole entry): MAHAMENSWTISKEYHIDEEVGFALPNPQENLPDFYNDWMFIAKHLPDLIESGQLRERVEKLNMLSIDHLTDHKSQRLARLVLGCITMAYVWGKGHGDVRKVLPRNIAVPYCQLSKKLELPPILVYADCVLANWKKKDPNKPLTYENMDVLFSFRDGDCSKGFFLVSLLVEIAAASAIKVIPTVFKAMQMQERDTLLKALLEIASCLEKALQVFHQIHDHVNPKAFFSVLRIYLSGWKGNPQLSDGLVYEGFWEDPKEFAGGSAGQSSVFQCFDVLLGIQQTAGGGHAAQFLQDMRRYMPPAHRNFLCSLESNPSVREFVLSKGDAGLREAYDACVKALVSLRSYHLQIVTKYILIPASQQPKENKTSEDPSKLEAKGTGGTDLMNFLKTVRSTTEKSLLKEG
- assay_text: Cell-based (HeLa) assay for measurement of IDO1 inhibition (kynurenine levels in supernatant after IFNγ induction)
- details: H1-HeLa cells, IFNγ-induced IDO1, 48 hour incubation, kynurenine absorbance at 480 nm; geometric mean of a minimum of four determinations
pEC50: −log10 of the molar value.
parameter: pEC50

INSERT INTO results (line_notation, quantitative_result) VALUES
  ('Cn1nncc1-c1ncc2c(-c3ccc(C(F)(F)F)c(C(=O)Nc4ccc(F)cc4)c3)cccn12', 5.92);

(1) O=C(Nc1ccc(F)cc1)c1cc(-c2cccn3c(-c4cccc(F)c4F)ncc23)ccc1C1CC1
(2) Cc1ncc(-c2ccnn3c(-c4cccc(F)c4F)nnc23)cc1C(=O)Nc1ccc(F)cc1
(3) Cc1ncc(-c2cccn3c(-c4cccc(F)c4F)ncc23)cc1C(=O)Nc1ccncc1
Q. Arrange the 3 entries by pEC50 so the values rise. // rank by listing labels in the order requested
A. 2, 3, 1
(2: 5.72, 3: 7.24, 1: 7.82)

(a) O=C(Nc1ccc(F)cc1)c1cc(-c2cccn3c(-c4ccccn4)ncc23)ccc1C(F)(F)F
(b) Cc1ncc(-c2cccn3c(-c4cccc(F)c4F)ncc23)cc1-c1nc2cc(F)ccc2[nH]1
(c) Cc1ccc(-c2cccn3c(-c4nnco4)ncc23)cc1C(=O)Nc1ccc(F)cc1
Q. # sort list by recorded pEC50, greatest to least // rank by listing labels in the order requested
A. a, b, c

---

- assayed_system: IDO1 (Homo sapiens)
- Construct: HeLa cells were treated with a test compound in the presence of IFNγ, which induces IDO1 expression; endogenous in cells
- assay_text: Cell-based (HeLa) assay for measurement of IDO1 inhibition (kynurenine levels in supernatant after IFNγ induction)
- details: H1-HeLa cells, IFNγ-induced IDO1, 48 hour incubation, kynurenine absorbance at 480 nm; geometric mean of a minimum of four determinations
pEC50: −log10 of the molar value.
parameter: pEC50

(I) Fc1ccc2[nH]c(-c3cc(-c4cccn5c(-c6cccc(F)c6F)ncc45)ccc3C(F)(F)F)nc2c1
(II) Fc1ccc2[nH]c(-c3cc(-c4cccn5c(-c6cccc(F)c6F)ncc45)ccc3Cl)nc2c1
Q. Which is greater in pEC50, the first item I or the second item II ? Returns: label corresponding to the selected item.
A. I
(I: 7.61, II: 7.17)

(I) Cc1ccc(-c2nccn3c(-c4cccc(F)c4F)ncc23)cc1C(=O)Nc1ccc(F)cc1
(II) Cc1ccc(-c2cccn3c(-c4ccccc4C(N)=O)nnc23)cc1C(=O)Nc1ccc(F)cc1
Q. // pick min by pEC50: I , II Returns: label corresponding to the selected item.
A. II

(A) Cc1ncc(-c2cccn3c(C4CCC4)ncc23)cc1C(=O)Nc1ccc(F)cc1
(B) Cc1ncc(-c2cccn3c(-c4ccccc4C(F)(F)F)ncc23)cc1C(=O)Nc1ccc(F)cc1
Q. // pick min by pEC50: A , B Returns: label corresponding to the selected item.
A. A
(A: 6.05, B: 6.62)

---

- assayed_system: IDO1 (Homo sapiens, UniProt P14902)
- Construct: HeLa cells were treated with a test compound in the presence of IFNγ, which induces IDO1 expression; endogenous in cells
- assay_text: Cell-based (HeLa) assay for measurement of IDO1 inhibition (kynurenine levels in supernatant after IFNγ induction)
- details: H1-HeLa cells, IFNγ-induced IDO1, 48 hour incubation, kynurenine absorbance at 480 nm; geometric mean of a minimum of four determinations
parameter: EC50 (nM)

(A) O=C(Nc1ccc(F)cc1)c1cc(-c2cccn3c(-c4cccc(F)c4F)ncc23)ccc1C(F)F [Example 41]
(B) Cc1ccc(-c2cccn3c(-c4ccccc4)nnc23)cc1C(=O)Nc1ccc(F)cc1 [Example 9]
(C) O=C(Nc1ccc(F)cc1)c1cc(-c2cccn3c(-c4cc[nH]n4)ncc23)ccc1C(F)(F)F [Example 32]
(D) Cc1cccc(-c2ncc3c(-c4ccc(C)c(C(=O)Nc5ccc(F)cc5)c4)nccn23)c1 [Example 53]
Q. # desc sort on EC50 across 4 compounds // rank by listing labels in the order requested
A. D, B, C, A
